system: Pseudomonas aeruginosa; assay: Minimum inhibition concentration in vitro determined against Pseudomona aeruginosa 5007; format: functional
MEASUREMENT KIND: MIC (µg/mL)
Answer with a number only, understood to be in µg/mL.

Sample records with MIC:
MOLECULE	OBSERVED
CN1CCN(c2cc3c(cc2F)c(=O)c(C(=O)O)cn3-c2ccc(F)cc2)CC1	1.56
CN1CCN(c2cc3c(cc2F)c(=O)c(C(=O)O)cn3-c2ccc(Br)cc2)CC1	50
O=C(O)c1cn(-c2ccc(F)cc2)c2cc(N3CCCCC3)c(F)cc2c1=O	6.2
CN1CCN(c2cc3c(cc2F)c(=O)c(C(=O)O)cn3-c2ccc(F)cc2F)CC1	1.56
O=C1CN(c2cc3c(cc2F)c(=O)c(C(=O)O)cn3-c2ccc(F)cc2)CCN1	6.2

query: If you can, please state the reported MIC value of CN1CCN(c2cc3c(cc2F)c(=O)c(C(=O)O)cn3-c2ccccc2F)CC1 .
result: 6.2

query: Entry CN1CCN(c2cc3c(cc2F)c(=O)c(C(=O)O)cn3-c2ccc3c(c2)OCO3)CC1 please
result: 6.2
